B1: HDV Ribozyme (parent)
chain: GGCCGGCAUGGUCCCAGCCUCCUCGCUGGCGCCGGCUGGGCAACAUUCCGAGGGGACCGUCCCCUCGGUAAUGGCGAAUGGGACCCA

- Variants of: B1
- test protocol: self-cleavage, relative activity (ratio to wild type); higher = more cleavage; co-transcriptional
Tag: 1 (yes) if measured self-cleavage is not below 0.3, 0 (no) if it is.

Solved entries:
>  <variant annotation>
G17A C86G

>  <assigned label>
1 (yes)

$$$$
>  <variant annotation>
A45G C75A

>  <assigned label>
0 (no)

$$$$
>  <variant annotation>
C26G C36G

>  <assigned label>
0 (no)

$$$$
>  <variant annotation>
U47A U79G

>  <assigned label>
1 (yes)

$$$$
>  <variant annotation>
C13U A45G

>  <assigned label>
1 (yes)

$$$$
>  <variant annotation>
A16U G29C

>  <assigned label>
0 (no)

$$$$
>  <variant annotation>
C24U G74C

>  <assigned label>
1 (yes)

$$$$
>  <variant annotation>
C3U C36G

>  <assigned label>
0 (no)

$$$$
>  <variant annotation>
C33A C61U

>  <assigned label>
0 (no)

$$$$
>  <variant annotation>
C19G A51G

>  <assigned label>
0 (no)

$$$$

[ask] Threshold query (self-cleavage >= 0.3) on U12G C30A
[reply] 1 (yes)

[ask] Threshold query (self-cleavage >= 0.3) on G6C C36U
[reply] 0 (no)
